Items are presented alongside their recorded Mean fluorescence intensity.
Target: T1, human LAG-3 on cells (HEK293-hLAG-3 stable cell line) (human, UniProt P18627 23-525)
T1 sequence: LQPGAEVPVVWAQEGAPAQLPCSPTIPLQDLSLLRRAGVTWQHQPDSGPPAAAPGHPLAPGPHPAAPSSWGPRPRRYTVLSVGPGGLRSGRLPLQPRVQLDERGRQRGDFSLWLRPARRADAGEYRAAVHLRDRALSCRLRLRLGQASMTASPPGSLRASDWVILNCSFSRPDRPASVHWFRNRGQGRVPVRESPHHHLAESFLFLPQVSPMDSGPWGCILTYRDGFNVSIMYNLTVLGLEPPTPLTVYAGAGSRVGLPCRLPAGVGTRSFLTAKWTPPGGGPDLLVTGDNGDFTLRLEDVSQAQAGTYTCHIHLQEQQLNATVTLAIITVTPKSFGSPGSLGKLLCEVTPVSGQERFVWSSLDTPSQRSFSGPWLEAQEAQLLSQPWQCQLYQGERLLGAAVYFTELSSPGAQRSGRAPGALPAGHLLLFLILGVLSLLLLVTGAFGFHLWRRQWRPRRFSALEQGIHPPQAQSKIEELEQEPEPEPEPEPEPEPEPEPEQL
Experiment: FACS, HEK293-hLAG-3, antibody 40 nM
outcome_measure: Mean fluorescence intensity

1. 556F6B8-4 humanized antibody (antibody, V domains shown) VH: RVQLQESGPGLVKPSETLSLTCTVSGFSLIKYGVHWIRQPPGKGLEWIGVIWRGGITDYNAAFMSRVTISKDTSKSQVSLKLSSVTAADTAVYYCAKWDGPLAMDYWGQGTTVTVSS VL: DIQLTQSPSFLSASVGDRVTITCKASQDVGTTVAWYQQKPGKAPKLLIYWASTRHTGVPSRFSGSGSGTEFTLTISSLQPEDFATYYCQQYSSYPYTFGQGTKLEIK: 82
2. 556F6B8-10 humanized antibody (antibody, V domains shown) VH: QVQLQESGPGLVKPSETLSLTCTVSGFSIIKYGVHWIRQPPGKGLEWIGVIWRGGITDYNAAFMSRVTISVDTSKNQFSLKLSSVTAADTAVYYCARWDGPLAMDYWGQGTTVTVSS VL: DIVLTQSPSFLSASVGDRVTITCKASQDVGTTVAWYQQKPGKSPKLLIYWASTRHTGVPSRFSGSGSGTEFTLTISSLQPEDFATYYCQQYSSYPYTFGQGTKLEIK: 54
